- test_system: human RXFP1, full-length (human), Q9HBX9
- Sequence (Q9HBX9 whole entry): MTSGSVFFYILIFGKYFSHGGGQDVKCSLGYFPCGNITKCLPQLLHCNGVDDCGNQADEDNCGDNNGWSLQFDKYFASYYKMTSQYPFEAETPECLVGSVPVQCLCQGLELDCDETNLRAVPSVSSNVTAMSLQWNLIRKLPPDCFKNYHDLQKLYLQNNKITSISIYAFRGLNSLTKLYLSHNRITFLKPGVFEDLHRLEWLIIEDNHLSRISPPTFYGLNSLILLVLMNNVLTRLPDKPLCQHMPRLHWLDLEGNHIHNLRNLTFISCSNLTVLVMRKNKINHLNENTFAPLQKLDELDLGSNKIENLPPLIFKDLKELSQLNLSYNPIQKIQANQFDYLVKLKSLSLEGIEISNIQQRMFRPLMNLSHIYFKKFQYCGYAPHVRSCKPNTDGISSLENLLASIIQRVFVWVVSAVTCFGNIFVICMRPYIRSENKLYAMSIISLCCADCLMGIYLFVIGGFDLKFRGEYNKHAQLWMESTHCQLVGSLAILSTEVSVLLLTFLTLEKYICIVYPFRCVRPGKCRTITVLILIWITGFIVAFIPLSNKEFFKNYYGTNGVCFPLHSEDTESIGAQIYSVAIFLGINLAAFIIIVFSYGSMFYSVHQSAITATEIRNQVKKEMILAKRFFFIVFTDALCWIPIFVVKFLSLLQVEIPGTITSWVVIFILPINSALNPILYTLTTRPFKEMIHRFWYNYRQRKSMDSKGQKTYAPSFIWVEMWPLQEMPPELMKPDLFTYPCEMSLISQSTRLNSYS
- protocol_notes: cell-based or functional assay
measure_name: Potency Assay EC50 (nM), transient hRXFP1 cAMP assay

>>> result_value("Relaxin-2 (R&D Biosystems 6586-RN-025) (ligand) chain 1: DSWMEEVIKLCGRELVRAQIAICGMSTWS chain 2: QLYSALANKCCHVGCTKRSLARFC")
0.1
>>> result_value("SEQ ID NO: 72 (Fc fusion) DKTHTCPPCPAPEAAGGPSVFLFPPKPKDTLMISRTPEVTCVVVDVSHEDPEVKFNWYVDGVEVHNAKTKPREEQYNSTYRVVSVLTVLHQDWLNGKEYKCKVSNKALAAPIEKTISKAKGQPREPQVYTLPPSRDELTKNQVSLTCLVKGFYPSDIAVEWESNGQPENNYKTTPPVLDSDGSFFLYSKLTVDKSRWQQGNVFSCSVLHEALHSHYTQKSLSLSPGKGGSDSWQEEVIKLCGRELVRAQIAICGKSTGGGEEGGGEEGGGRQLYSALANKCCHVGCTKRSLARFC")
5.8
>>> result_value("SEQ ID NO: 74 (Fc fusion) DKTHTCPPCPAPEAAGGPSVFLFPPKPKDTLMISRTPEVTCVVVDVSHEDPEVKFNWYVDGVEVHNAKTKPREEQYNSTYRVVSVLTVLHQDWLNGKEYKCKVSNKALAAPIEKTISKAKGQPREPQVYTLPPSRDELTKNQVSLTCLVKGFYPSDIAVEWESNGQPENNYKTTPPVLDSDGSFFLYSKLTVDKSRWQQGNVFSCSVLHEALHSHYTQKSLSLSPGKGGSDSWQEEVIKLCGRELVRAQIAICGKSTGGGEEGGGEEGGGRQLYSALANKCCHVGCTKRSLAQFC")
10.2
>>> result_value("SEQ ID NO: 70 (Fc fusion) DKTHTCPPCPAPEAAGGPSVFLFPPKPKDTLMISRTPEVTCVVVDVSHEDPEVKFNWYVDGVEVHNAKTKPREEQYNSTYRVVSVLTVLHQDWLNGKEYKCKVSNKALAAPIEKTISKAKGQPREPQVYTLPPSRDELTKNQVSLTCLVKGFYPSDIAVEWESNGQPENNYKTTPPVLDSDGSFFLYSKLTVDKSRWQQGNVFSCSVLHEALHSHYTQKSLSLSPGGGSDSWQEEVIKLCGRELVRAQIAICGKSTGGGEGGGEGGGEGRQLYSALANKCCHVGCTKRSLAQFC")
8
>>> result_value("SEQ ID NO: 212 (Fc fusion) DKTHTCPPCPAPEAAGGPSVFLFPPKPKDTLMISRTPEVTCVVVDVSHEDPEVKFNWYVDGVEVHNAKTKPREEQYNSTYRVVSVLTVLHQDWLNGKEYKCKVSNKALAAPIEKTISKAKGQPREPQVYTLPPSRDELTKNQVSLTCLVKGFYPSDIAVEWESNGQPENNYKTTPPVLDSDGSFFLYSKLTVDKSRWQQGNVFSCSVLHEALHSHYTQKSLSLSPGKGGSDSWKEEVIKLCGRELVRAQIAICGKSTASDAAGANANAGARQLYSALANKCCHVGCTKRSLAQFC")
0.5
